- Test system: KB cells
- method notes: Inhibition of KB cell growth (crystal violet staining)
- Format: cell-based, human
- measurement setup: inhibition of KB cell growth; read-out: 50% Inhibitory Concentration, Cytotoxicity (KB)
Would you mind telling me the reported IC50 of each entry?
Give bare numbers, in µM.

Below is a list of compounds. For each, state its recorded IC50.
1. C[C@H]1O[C@@H](n2c(Cl)nc3cc(Cl)c(Cl)cc32)[C@H](O)[C@@H]1O [Compound 2, reference compound]
2. CC(=O)O[C@@H]1[C@H](OC(C)=O)[C@@H](CBr)O[C@H]1n1c(Cl)nc2cc(Cl)c(Cl)cc21 [Compound 12c]
3. CC(=O)O[C@@H]1[C@H](OC(C)=O)[C@@H](CF)O[C@H]1n1c(Cl)nc2cc(Cl)c(Cl)cc21 [Compound 12a]
4. O[C@@H]1[C@H](O)[C@@H](CBr)O[C@H]1n1c(Cl)nc2cc(Cl)c(Cl)cc21 [Compound 13c]
5. CC1(C)O[C@@H]2[C@H](O1)[C@@H](CCl)O[C@H]2n1c(Cl)nc2cc(Cl)c(Cl)cc21 [Compound 19b]
6. [N-]=[N+]=NC[C@H]1O[C@@H](n2c(Cl)nc3cc(Cl)c(Cl)cc32)[C@H](O)[C@@H]1O [Compound 17a]
7. O[C@@H]1[C@H](O)[C@@H](CCl)O[C@H]1n1c(Cl)nc2cc(Cl)c(Cl)cc21 [Compound 13b]

1: 150; 2: 60; 3: 100; 4: 90; 5: 100; 6: 70; 7: 90

Return reported IC50 values for all items listed beneath this line.
1. CC(=O)O[C@@H]1[C@H](OC(C)=O)[C@@H](CN=[N+]=[N-])O[C@H]1n1c(Cl)nc2cc(Cl)c(Cl)cc21 [Compound 16a]
2. CC(=O)O[C@@H]1[C@H](OC(C)=O)[C@@H](CCl)O[C@H]1n1c(Cl)nc2cc(Cl)c(Cl)cc21 [Compound 12b]
3. CC(=O)O[C@@H]1[C@H](OC(C)=O)[C@@H](CI)O[C@H]1n1c(Cl)nc2cc(Cl)c(Cl)cc21 [Compound 12d]

70
90
60

----------
- method notes: Visual cytotoxicity in stationary HFF cells at time of plaque enumeration
- Assay type: cell-based, human
- measurement setup: human, stationary human foreskin fibroblasts (HFF cells); visual cytotoxicity on HFF cells at time of HCMV plaque enumeration; read-out: 50% Inhibitory Concentration, Cytotoxicity (HFF)
For each of the compounds below, state its IC50.
One number for each entry, in µM.

Record IC50 for all entries; do not skip any.
1. COC[C@H]1O[C@@H](n2c(Cl)nc3cc(Cl)c(Cl)cc32)[C@H](OC(C)=O)[C@@H]1OC(C)=O
2. OC[C@H]1O[C@@H](n2c(Cl)nc3cc(Cl)c(Cl)cc32)[C@H](O)[C@@H]1O [Compound 1, reference compound]
3. CCOC[C@H]1O[C@@H](n2c(Cl)nc3cc(Cl)c(Cl)cc32)[C@H](OC(C)=O)[C@@H]1OC(C)=O

[26, 238, 33]

Consider the compound CCCCCCOC[C@H]1O[C@@H](n2c(Cl)nc3cc(Cl)c(Cl)cc32)[C@H](OC(C)=O)[C@@H]1OC(C)=O and give its measured IC50. 32

----------
Provide the recorded melting point for the entries that follow.

smiles representation | result
CCOC[C@H]1O[C@@H](n2c(Cl)nc3cc(Cl)c(Cl)cc32)[C@H](OC(C)=O)[C@@H]1OC(C)=O | 125 to 126 °C

For every record below, what is its melting point?
1. CCCCOC[C@H]1O[C@@H](n2c(Cl)nc3cc(Cl)c(Cl)cc32)[C@H](O)[C@@H]1O
2. CCOC[C@H]1O[C@@H](n2c(Cl)nc3cc(Cl)c(Cl)cc32)[C@H](O)[C@@H]1O
3. COC[C@H]1O[C@@H](n2c(Cl)nc3cc(Cl)c(Cl)cc32)[C@H](O)[C@@H]1O
4. COC[C@H]1O[C@@H](n2c(Cl)nc3cc(Cl)c(Cl)cc32)[C@H](OC(C)=O)[C@@H]1OC(C)=O
5. CCCCOC[C@H]1O[C@@H](n2c(Cl)nc3cc(Cl)c(Cl)cc32)[C@H](OC(C)=O)[C@@H]1OC(C)=O

1. 70 to 72 °C
2. 88 to 90 °C
3. 104 to 105 °C
4. 150 to 151 °C
5. 143 to 144 °C

I have this compound here, CCCCCCOC[C@H]1O[C@@H](n2c(Cl)nc3cc(Cl)c(Cl)cc32)[C@H](OC(C)=O)[C@@H]1OC(C)=O , and I need its recorded melting point. 98 to 100 °C

----------
I'd be grateful if you could share measured IC50 at 2 population doubling times for these entries.
- method notes: Inhibition of KB cell growth (crystal violet staining)
- Format: cell-based, human
- measurement setup: human, KB cells (human epidermal oral carcinoma line); inhibition of KB cell growth; read-out: 50% Inhibitory Concentration, Cytotoxicity (KB)
Numbers only, in µM.

molecule | readout number
CCOC[C@H]1O[C@@H](n2c(Cl)nc3cc(Cl)c(Cl)cc32)[C@H](O)[C@@H]1O | 80

Give measured IC50 at 2 population doubling times for every item shown.
1. COC[C@H]1O[C@@H](n2c(Cl)nc3cc(Cl)c(Cl)cc32)[C@H](OC(C)=O)[C@@H]1OC(C)=O
2. CCOC[C@H]1O[C@@H](n2c(Cl)nc3cc(Cl)c(Cl)cc32)[C@H](OC(C)=O)[C@@H]1OC(C)=O
3. CCCCCCOC[C@H]1O[C@@H](n2c(Cl)nc3cc(Cl)c(Cl)cc32)[C@H](OC(C)=O)[C@@H]1OC(C)=O
4. COC[C@H]1O[C@@H](n2c(Cl)nc3cc(Cl)c(Cl)cc32)[C@H](O)[C@@H]1O

1: 80; 2: 60; 3: 60; 4: 90

Batch lookup, IC50 at 2 population doubling times per entry.
1. OC[C@H]1O[C@@H](n2c(Cl)nc3cc(Cl)c(Cl)cc32)[C@H](O)[C@@H]1O [Compound 1, reference compound]
2. CCCCOC[C@H]1O[C@@H](n2c(Cl)nc3cc(Cl)c(Cl)cc32)[C@H](O)[C@@H]1O

210
60

----------
- Test system: KB cells
- method notes: Inhibition of KB cell growth (crystal violet staining)
- Type: cell-based, human
- measurement setup: inhibition of KB cell growth; read-out: 50% Inhibitory Concentration, Cytotoxicity (KB)
Consider the following molecules; for each one, report its IC50.

# annotated cases, reported IC50 shown
molecule | IC50
O[C@@H]1[C@H](O)[C@@H](CF)O[C@H]1n1c(Cl)nc2cc(Cl)c(Cl)cc21 [Compound 13a] | > 100 µM
CSC[C@H]1O[C@@H](n2c(Cl)nc3cc(Cl)c(Cl)cc32)[C@H](O)[C@@H]1O [Compound 17b] | > 100 µM

Which IC50 reading was recorded for the molecule CSC[C@H]1O[C@@H](n2c(Cl)nc3cc(Cl)c(Cl)cc32)[C@H](OC(C)=O)[C@@H]1OC(C)=O [Compound 16b] ? > 100 µM
